System: SR leukemia
Assay: NCI-60 one-dose screen, 48 h (100 = growth as untreated, 0 = no growth, -100 = all killed)
Settings: 10 µM unless noted
Compounds without any hit were thinned out: in the full panel of roughly 83,000, 20% have a hit.
Each entry gets condition not met if its growth stays under 10%, and condition met if its growth is 10% or above.

These solved cases illustrate the format of a correct answer.
>>> class_label("O=C(CC(=O)c1cccc(Cl)c1)c1cccc(Cl)c1")
"condition not met"
>>> class_label("CC(C)CC1NC(=O)C(CC(C)C)N(CO)C1=O (stereo not given)")
"condition met"
>>> class_label("CC(C)(C)OC[C@@H]1N=C(c2ccc(Br)cc2)Nc2nc3ccccn3c2C1=O")
"condition met"
>>> class_label("C[Si](C)(C)C(c1ccccc1)c1ccccc1")
"condition met"
>>> class_label("C=CC(=O)N1CN(C(=O)C=C)CN(C(=O)C=C)C1")
"condition met"

Tell me whether growth is at least 10% here: COc1ccc(C2=NNC(c3ccc(Oc4nc5c(c(=O)n(C)c(=O)n5C)n4C)c(OC)c3)C2)cc1 (stereo not given)
condition met

Tell me whether growth is at least 10% here: `CN(C)CCCn1c(=O)c2cc([N+](=O)[O-])ccc2c2cnc3[nH]ccc3c21`
condition not met

Tell me whether growth is at least 10% here: `O=C(N/N=C\c1cc(Br)ccc1O)c1ccncc1`
condition met

Tell me whether growth is at least 10% here: `N=C(N)c1ccc(-c2ccc(-c3ccco3)o2)cc1F`
condition not met

Tell me whether growth is at least 10% here: `CC(C)(C)c1ccc(OC(=O)Nc2ccccc2)cc1`
condition met

Tell me whether growth is at least 10% here: `c1cn2cc(-c3ccc4ncn(C5CCCCC5)c4c3)nc(-c3ccc4c(c3)ncn4C3CCCCC3)c2n1`
condition not met

Tell me whether growth is at least 10% here: CC(CN1CCN(CC(C)Nc2ccnc3cc(Cl)ccc23)CC1)Nc1ccnc2cc(Cl)ccc12 (stereo not given)
condition not met

Tell me whether growth is at least 10% here: COc1cc(C2CC(c3ccc(Cl)cc3)=NN2C(C)=O)ccc1Oc1ccnc2cc(Cl)ccc12 (stereo not given)
condition met

Tell me whether growth is at least 10% here: `Cc1cc(Nc2c3ccccc3nc3ccccc23)ccc1NS(C)(=O)=O`
condition not met

Tell me whether growth is at least 10% here: `CCN(CC)c1ccc(/C=N/NC(=O)C[N+](C)(C)C)cc1`
condition met

Tell me whether growth is at least 10% here: `COc1ccc(/C=C/C(=O)CCC(=O)O)cc1OC`
condition met

Tell me whether growth is at least 10% here: `O=C(Nc1ccc(Cl)cc1)c1cc(-c2ccc(Cl)cc2)c2sc(=O)[nH]c2n1`
condition not met

Tell me whether growth is at least 10% here: Oc1c(C(Nc2ccccc2Br)c2ccccc2)ccc2cccnc12 (stereo not given)
condition not met

Tell me whether growth is at least 10% here: `O=C(Nc1ccc(-n2ccc3c(NC(=O)c4ccccc4)nccc32)cc1)c1ccc(N2CCOCC2)c(C(F)(F)F)c1`
condition not met

Tell me whether growth is at least 10% here: `COc1cnc2c(c1)C(=O)c1c-2n(CCCNC(C)C)c(=O)c2cc(Cl)ccc12`
condition not met

Tell me whether growth is at least 10% here: CCN1C(=O)N(CC)C2C1NN=c1s/c(=C\c3ccco3)c(=O)n12 (stereo not given)
condition met

These data points were gathered from PubChem BioAssay (NCI).
